# targetOrSystem: FAAH (Mus musculus, UniProt O08914)
# Construct: Proteomes (mouse brain membrane fraction or cell lysates); from tissue; host or cells: mouse brain membrane fraction (or unspecified cell lysates)
# Sequence (O08914 1-579): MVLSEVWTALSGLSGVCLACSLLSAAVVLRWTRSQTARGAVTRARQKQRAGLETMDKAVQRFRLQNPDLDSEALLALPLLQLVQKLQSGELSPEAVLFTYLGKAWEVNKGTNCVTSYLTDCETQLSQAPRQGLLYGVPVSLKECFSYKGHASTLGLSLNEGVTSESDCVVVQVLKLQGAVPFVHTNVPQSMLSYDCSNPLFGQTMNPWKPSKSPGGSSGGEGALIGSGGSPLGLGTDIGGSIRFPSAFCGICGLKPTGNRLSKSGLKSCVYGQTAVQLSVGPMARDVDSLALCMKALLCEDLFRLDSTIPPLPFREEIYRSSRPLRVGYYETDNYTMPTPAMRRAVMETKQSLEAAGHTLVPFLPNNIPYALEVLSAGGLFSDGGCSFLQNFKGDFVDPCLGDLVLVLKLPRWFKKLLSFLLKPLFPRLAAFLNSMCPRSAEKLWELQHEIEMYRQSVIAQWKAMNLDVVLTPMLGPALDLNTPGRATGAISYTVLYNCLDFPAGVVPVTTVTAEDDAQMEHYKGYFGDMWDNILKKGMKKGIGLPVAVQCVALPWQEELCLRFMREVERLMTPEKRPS
# protocolDescription: In vitro competitive activity-based protein profiling (mouse), FAAH
# Type: biochemical
# assayConditions: 1 μM, mouse proteome, in vitro
Please go through the items and note down their inhibition at 1 µM.

Here is how some compounds turned out for inhibition at 1 µM.
O=C(OC(C(F)(F)F)C(F)(F)F)N1CCN(Cc2ccc(C(F)(F)F)cc2N2CCC(C(=O)N3CCCC3)CC2)CC1
< 25%
O=C(OC(C(F)(F)F)C(F)(F)F)N1CCN(Cc2ccc(Cl)cc2N2CC[C@H](N3CCCS3(=O)=O)C2)CC1
25 to 75%
O=C(O)C1CCN(c2cc(CN3CCN(C(=O)OC(C(F)(F)F)C(F)(F)F)CC3)cc(C(F)(F)F)c2)C1 (stereo not shown)
< 25%

Now look at this one.
The recorded inhibition at 1 µM for entry CN(C)C(=O)C1CCN(c2cc(Cl)ccc2CN2CCN(C(=O)OC(C(F)(F)F)C(F)(F)F)CC2)CC1 equals < 25%

----------
# targetOrSystem: MAGL (Mus musculus, UniProt O35678)
# Construct: Proteomes (mouse brain membrane fraction or cell lysates); from tissue; host or cells: mouse brain membrane fraction (or unspecified cell lysates)
# Sequence (O35678 whole entry): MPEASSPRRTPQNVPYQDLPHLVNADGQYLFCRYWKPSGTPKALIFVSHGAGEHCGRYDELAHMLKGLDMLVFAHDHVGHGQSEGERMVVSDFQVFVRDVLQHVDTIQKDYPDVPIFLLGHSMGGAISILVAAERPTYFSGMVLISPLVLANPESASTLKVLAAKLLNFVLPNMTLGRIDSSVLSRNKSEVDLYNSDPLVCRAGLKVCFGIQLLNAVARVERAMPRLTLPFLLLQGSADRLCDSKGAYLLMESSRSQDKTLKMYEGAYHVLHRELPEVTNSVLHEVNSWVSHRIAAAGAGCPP
# protocolDescription: In vitro competitive activity-based protein profiling (mouse), MAGL
# Type: biochemical
# assayConditions: 1 μM, mouse proteome, in vitro; read-out: % Inhibition at 1 μM MAGL
testReadout: inhibition at 1 µM

O=C(OC(C(F)(F)F)C(F)(F)F)N1CCN(Cc2cccc(OC(F)(F)F)c2N2CCC(N3CCCC3)CC2)CC1
> 75%

Could you tell me inhibition at 1 µM for each of these compounds? They are listed below.
1. CS(=O)(=O)N[C@@H]1CCN(c2cc(Cl)ccc2CN2CCN(C(=O)OC(C(F)(F)F)C(F)(F)F)CC2)C1
2. O=C(O)C(=O)c1cc(CN2CCN(C(=O)OC(C(F)(F)F)C(F)(F)F)CC2)cc(C(F)(F)F)c1

A:
["> 75%", "> 75%"]

Please state, for each entry, its recorded inhibition at 1 µM.
1. O=C(OC(C(F)(F)F)C(F)(F)F)N1CCN(Cc2cc(N3CCCC3CO)cc(C(F)(F)F)c2)CC1 (centres unmarked)
2. Cc1ccc(CN2CCN(C(=O)OC(C(F)(F)F)C(F)(F)F)CC2)c(N2CC[C@H](CF)C2)c1
3. O=C(O)C1CN(c2cc(CN3CCN(C(=O)OC(C(F)(F)F)C(F)(F)F)CC3)ccc2C(F)(F)F)CCO1 (centres unmarked)
4. NC(=O)C1CCN(c2cc(C(F)(F)F)ccc2CN2CCN(C(=O)OC(C(F)(F)F)C(F)(F)F)CC2)CC1
5. O=C(O)C1CCN(c2cc(C(F)(F)F)ccc2CN2CCN(C(=O)OC(C(F)(F)F)C(F)(F)F)CC2)CC1

A:
> 75%
> 75%
> 75%
> 75%
> 75%

Could I get inhibition at 1 µM for every one of these entries?
1. O=C(OC(C(F)(F)F)C(F)(F)F)N1CCN(Cc2ccc(C(F)(F)F)c(N3CC4CCC(C3)O4)c2)CC1
2. CC(=O)N[C@@H]1CCN(Cc2cccc(CN3CCN(C(=O)OC(C(F)(F)F)C(F)(F)F)CC3)c2C)C1
3. O=C(O)C1CCN(c2cc(C(F)(F)F)ccc2CN2CCN(C(=O)OC(C(F)(F)F)C(F)(F)F)CC2)C1 (centres unmarked)
4. CS(=O)(=O)N[C@H]1CCN(c2cc(Cl)ccc2CN2CCN(C(=O)OC(C(F)(F)F)C(F)(F)F)CC2)C1
5. O=C(OC(C(F)(F)F)C(F)(F)F)N1CCN(Cc2ccc(C(F)(F)F)cc2N2CC3CN(C4CC4)CC3C2)CC1 (centres unmarked)

A:
["> 75%", "> 75%", "> 75%", "> 75%", "> 75%"]

// compound NC(=O)C1CCN(c2cc(Cl)ccc2CN2CCN(C(=O)OC(C(F)(F)F)C(F)(F)F)CC2)CC1 , assay MAGL (Mus musculus, UniProt O35678), inhibition at 1 µM value: > 75%

----------
Kindly supply the reported inhibition at 5 mg/kg values for the records listed here.
# targetOrSystem: FAAH (Mus musculus, UniProt O08914)
# Construct: Proteomes (mouse brain membrane fraction or cell lysates); from tissue; host or cells: mouse brain membrane fraction (or unspecified cell lysates)
# protocolDescription: Mouse brain proteomes from inhibitor treated mice, FAAH
# Type: in vivo
# assayConditions: 5 mg/kg oral gavage, C57Bl/6J mice, brain proteome 4 h after administration

O=C(OC(C(F)(F)F)C(F)(F)F)N1CCN(Cc2ccc(Cl)cc2N2CC[C@H](CF)C2)CC1
< 25%
O=C(OC(C(F)(F)F)C(F)(F)F)N1CCN(Cc2ccc(C(F)(F)F)cc2N2CC[C@H](CF)C2)CC1
< 25%

// next item, inhibition at 5 mg/kg requested
In plain terms, O=C(O)C1CN(c2cc(C(F)(F)F)ccc2CN2CCN(C(=O)OC(C(F)(F)F)C(F)(F)F)CC2)CCO1 (stereo not drawn) has a documented inhibition at 5 mg/kg of < 25%

----------
What inhibition at 1 µM was measured for each of the following?
# targetOrSystem: MAGL (Mus musculus, UniProt O35678)
# Construct: Proteomes (mouse brain membrane fraction or cell lysates); from tissue; host or cells: mouse brain membrane fraction (or unspecified cell lysates)
# protocolDescription: In vitro competitive activity-based protein profiling (mouse), MAGL
# Assay type: biochemical
# assayConditions: 1 μM, mouse proteome, in vitro; read-out: % Inhibition at 1 μM MAGL

O=C(OC(C(F)(F)F)C(F)(F)F)N1CCN(Cc2ccc(Cl)cc2N2CC[C@H](N3CCCCC3=O)C2)CC1 [Example 44]
> 75%
Cc1c(CN2CCC(NS(C)(=O)=O)CC2)cccc1CN1CCN(C(=O)OC(C(F)(F)F)C(F)(F)F)CC1 [Example 10]
> 75%
O=C(OC(C(F)(F)F)C(F)(F)F)N1CCN(Cc2ccc(Cl)cc2N2CCC3(CCCN3C3CC3)CC2)CC1 [Example 66]
> 75%
O=C(O)C1CCN(c2cc(CN3CCN(C(=O)OC(C(F)(F)F)C(F)(F)F)CC3)cc(C(F)(F)F)c2)CC1 [Example 94]
25 to 75%
CS(=O)(=O)N[C@H]1CCN(c2cccc(C(F)(F)F)c2CN2CCN(C(=O)OC(C(F)(F)F)C(F)(F)F)CC2)C1 [Example 48]
25 to 75%
O=C(OC(C(F)(F)F)C(F)(F)F)N1CCN(Cc2cc(Cl)cc(CN3CCCC3)c2)CC1 [Example 29]
> 75%

In plain terms, O=C(OC(C(F)(F)F)C(F)(F)F)N1CCN(Cc2cccc(Cl)c2N2CC[C@H](CF)C2)CC1 [Example 55] has a documented inhibition at 1 µM of > 75%

----------
Give inhibition at 1 µM for every item shown.
# targetOrSystem: ABHD6 (Mus musculus)
# Construct: Proteomes (mouse brain membrane fraction or cell lysates); from tissue; host or cells: mouse brain membrane fraction (or unspecified cell lysates)
# Sequence (Q8R2Y0 whole entry): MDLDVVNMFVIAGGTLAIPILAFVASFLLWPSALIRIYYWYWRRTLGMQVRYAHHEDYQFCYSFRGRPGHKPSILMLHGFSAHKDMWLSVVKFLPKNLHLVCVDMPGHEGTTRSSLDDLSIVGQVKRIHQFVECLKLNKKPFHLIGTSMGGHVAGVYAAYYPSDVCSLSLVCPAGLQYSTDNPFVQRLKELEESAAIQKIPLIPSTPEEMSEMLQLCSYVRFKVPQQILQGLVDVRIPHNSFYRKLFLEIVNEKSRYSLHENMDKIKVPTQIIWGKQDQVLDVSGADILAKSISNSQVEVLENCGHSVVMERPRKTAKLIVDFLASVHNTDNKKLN
# protocolDescription: In vitro competitive activity-based protein profiling (mouse), ABHD6
# Assay type: biochemical
# assayConditions: 1 μM, mouse proteome, in vitro; read-out: % Inhibition at 1 μM ABHD6

O=C(OC(C(F)(F)F)C(F)(F)F)N1CCN(Cc2ccc(CN3CCCCC3)cc2OC(F)(F)F)CC1
< 25%
NC(=O)C1CCN(c2cc(C(F)(F)F)ccc2CN2CCN(C(=O)OC(C(F)(F)F)C(F)(F)F)CC2)CC1
> 75%
O=C(OC(C(F)(F)F)C(F)(F)F)N1CCN(Cc2ccc(Cl)cc2N2CC[C@H](N3CCCC3=O)C2)CC1
25 to 75%
CS(=O)(=O)N[C@H]1CCN(c2cc(Cl)ccc2CN2CCN(C(=O)OC(C(F)(F)F)C(F)(F)F)CC2)C1
< 25%
COc1c(CN2CCC(F)CC2)cccc1CN1CCN(C(=O)OC(C(F)(F)F)C(F)(F)F)CC1
> 75%
O=C(O)C(=O)c1cc(CN2CCN(C(=O)OC(C(F)(F)F)C(F)(F)F)CC2)cc(C(F)(F)F)c1
> 75%
CS(=O)(=O)N[C@H]1CCN(c2cccc(C(F)(F)F)c2CN2CCN(C(=O)OC(C(F)(F)F)C(F)(F)F)CC2)C1
< 25%
O=C(OC(C(F)(F)F)C(F)(F)F)N1CCN(Cc2ccc(Cl)cc2N2CC[C@H](N3CCCS3(=O)=O)C2)CC1
25 to 75%

Look up inhibition at 1 µM for the entries below, preserving their order.
1. Cc1c(CN2CCC(F)CC2)cccc1CN1CCN(C(=O)OC(C(F)(F)F)C(F)(F)F)CC1
2. O=C(O)C1CCN(c2cc(CN3CCN(C(=O)OC(C(F)(F)F)C(F)(F)F)CC3)cc(C(F)(F)F)c2)C1 (stereo not drawn)
3. O=C(O)C1CN(c2cc(CN3CCN(C(=O)OC(C(F)(F)F)C(F)(F)F)CC3)cc(C(F)(F)F)c2)CCO1 (stereo not drawn)
4. O=C(OC(C(F)(F)F)C(F)(F)F)N1CCN(Cc2ccc(Cl)cc2N2CC[C@H](N3CCCCC3=O)C2)CC1
5. CC(=O)NC1CCN(Cc2cccc(CN3CCN(C(=O)OC(C(F)(F)F)C(F)(F)F)CC3)c2C)CC1
6. O=C(OC(C(F)(F)F)C(F)(F)F)N1CCN(Cc2ccc(C(F)(F)F)cc2N2CC3CN(C4CC4)CC3C2)CC1 (stereo not drawn)
7. O=C(O)C(=O)c1cc(CN2CCN(C(=O)OC(C(F)(F)F)C(F)(F)F)CC2)ccc1C(F)(F)F

A:
1: > 75%; 2: > 75%; 3: < 25%; 4: < 25%; 5: 25 to 75%; 6: 25 to 75%; 7: > 75%
